test system: EKVX; assay: NCI tumour cell line growth inhibition, 48 h
Active and inactive are the calls of the source. Cut-off read from the data, not from the text of the source: active = GI50 up to about 1.1 µM and inactive = higher.
Endpoint: GI50

CC(/C=C/C(=O)c1sc(C(N)=S)nc1C)=C\c1ccccc1 = > 100 µM (inactive)
COc1ccc2[nH]cc(CCNC(=O)[C@H](Cc3ccc(O)cc3)NC(=O)[C@@H](NCC(F)(F)F)C(C)C)c2c1 = 99.8 µM (inactive)
COc1cc2c(OC)c(c1)CCCC1=CC(=O)C=C(CCC2)C1=O = 41.1 µM (inactive)
C=CCN1/C(=C(\C#N)c2nc3ccccc3[nH]2)Sc2c1nc[nH]c2=O = > 100 µM (inactive)
CC(OC(C)(C)C)[C@H](NC(=O)OCC(Cl)(Cl)Cl)C(=O)O (stereo not given in full) = > 100 µM (inactive)
O=C(Cc1c(C(=O)Nc2ccccc2)sc(C(=O)Nc2ccccc2)c1CC(=O)Nc1ccccc1)Nc1ccccc1 = > 100 µM (inactive)
COC(=O)C1=CCC2c3[nH]c4ccccc4c3CCN2C1 (stereo not given) = 343 µM (inactive)
COC(=O)C12CC3CC(CC(C(=O)O)(C3)C1)C2 = > 100 µM (inactive)

Prompt line: Return the recorded GI50 value; entry: `C=CC(=O)NCNC(=O)C=C`
Response line: > 100 µM (inactive)

Prompt line: Complete the entry with GI50 for `CC[C@]12CCCN3CCc4c(n(c5ccccc45)C(=O)C1)[C@@H]32`
Response line: 46.9 µM (inactive)
